- EXPERIMENTAL TARGET: T1, P7
- T1 chain: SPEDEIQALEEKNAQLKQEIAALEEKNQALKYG
- PROTOCOL DETAILS: two-hybrid library CC1;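 also: natural log of median RNA to DNA barcode read ratio; higher means stronger binding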
- MEASUREMENT CONDITIONS: mean of both orientations
The following binders are shown together with reported interaction score values.
Enter a number only.

Recorded interaction score, per entry:
For the binder KNERLKEEIQRLEQENQQLEEKISQLKYGC [P6SC2] , what interaction score is on record?
0.0928

For the binder SPEDENAALEEKIAQLKQKNAALKEEIQALEYG [P5] , what interaction score is on record?
-2.59

For the binder ENSQLEEKISQLKQKNSRLKEEIARLEYGC [P5SC1] , what interaction score is on record?
-2.4

For the binder KNAQLKEKIAALKEKIQQLKEENQALEYG [P12] , what interaction score is on record?
-2.41

For the binder KNSQLKEEIQQLEEENQQLEEKIRQLKYGC [P6SC1] , what interaction score is on record?
-0.456

For the binder SPEDEIQQLEEEIAQLEQKNAALKEKNQALKYG [P3] , what interaction score is on record?
-2.61

# next binder below
For the binder ENQALEQEIAQLEQEIAALEQKNAQLKYG [P11] , what interaction score is on record?
-2.69
